# TARGET UNDER TEST: human glucocorticoid receptor-α [GRX] isoform (Homo sapiens, UniProt P04150)
# Construct: host or cells: insect SF21 cells (baculovirus)
# Sequence (P04150 whole entry, canonical isoform): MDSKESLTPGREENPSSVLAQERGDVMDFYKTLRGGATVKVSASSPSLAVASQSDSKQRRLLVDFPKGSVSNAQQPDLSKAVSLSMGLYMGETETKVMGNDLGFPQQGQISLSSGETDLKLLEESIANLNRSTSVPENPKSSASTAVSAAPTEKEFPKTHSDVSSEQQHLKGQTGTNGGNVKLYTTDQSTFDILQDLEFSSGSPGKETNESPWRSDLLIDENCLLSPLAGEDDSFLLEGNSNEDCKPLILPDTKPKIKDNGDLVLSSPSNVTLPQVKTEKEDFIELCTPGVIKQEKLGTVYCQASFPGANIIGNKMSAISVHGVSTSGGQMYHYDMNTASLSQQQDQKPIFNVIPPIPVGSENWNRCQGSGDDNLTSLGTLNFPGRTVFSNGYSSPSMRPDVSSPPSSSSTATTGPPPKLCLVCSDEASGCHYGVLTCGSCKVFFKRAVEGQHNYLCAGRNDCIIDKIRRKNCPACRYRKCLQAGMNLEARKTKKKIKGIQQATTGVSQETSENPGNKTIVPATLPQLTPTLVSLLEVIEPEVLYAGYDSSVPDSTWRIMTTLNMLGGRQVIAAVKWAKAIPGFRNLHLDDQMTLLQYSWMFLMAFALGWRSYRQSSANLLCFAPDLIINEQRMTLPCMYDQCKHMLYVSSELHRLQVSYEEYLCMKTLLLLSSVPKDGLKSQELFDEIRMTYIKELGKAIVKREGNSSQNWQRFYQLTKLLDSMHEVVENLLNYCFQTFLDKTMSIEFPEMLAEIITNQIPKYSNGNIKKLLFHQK
# ASSAY OVERVIEW: Radioligand binding with human glucocorticoid receptor cytosol ([3H]-dexamethasone competition)
# SETUP CONDITIONS: GRX cytosol expressed in insect SF21 cells, [3H]-Dex ~0.9 nM, 4° C. overnight; Ki by Cheng-Prusoff, KL ~[…]; read-out: Ki (nM) GR
Let's look at some compounds and their measured log10 of Ki.
Heads up, the numbers here are log10 of Ki in nM units.

Some solved cases for reference:
Would you kindly share the measured log10 of Ki for CCC1Oc2ccc(O)c(Cl)c2-c2ccc3c(c21)C(C)=CC(C)(C)N3 (centres unmarked) [Example 404] ? 0.11

Lookup COc1cccc2c1-c1ccc3c(c1C(=CC1=NC(C)(C)CO1)O2)C(C)=CC(C)(C)N3 [Example 127] 1.47

And what about the compound COc1c(O)ccc2c1-c1ccc3c(c1C(C1CCCCC1)O2)C(C)=CC(C)(C)N3 (centres unmarked) [Example 278] ? 0.04

Note, next up: COc1cccc2c1-c1ccc3c(c1[C@H]([C@H]1C=C(CO)CCC1)O2)C(C)=CC(C)(C)N3 [Example 155] -0.07

Proceed to COCOc1cccc(C2Oc3cccc(OC)c3-c3ccc4c(c32)C(C)=CC(C)(C)N4)c1 (centres unmarked) [Example 99] 0.56

Lookup COc1cccc2c1-c1ccc3c(c1C(c1cc(C)cc(-c4ccco4)c1)O2)C(C)=CC(C)(C)N3 (centres unmarked) [Example 16] 0.90

What about this compound? C#Cc1cccc2c1-c1ccc3c(c1C(c1ccccc1)O2)C(C)=CC(C)(C)N3 (centres unmarked) [Example 334] 0.98

API: the following record is the query input.
Recorded log10 of Ki of C=CCC1Oc2c(Br)cc(Br)c(OC)c2-c2ccc3c(c21)C(C)=CC(C)(C)N3 (centres unmarked) [Example 301] , please. 1.20

The measured values listed here are drawn from patent US6506766B1.
